System: HepG2 cells
Test: in vitro
Details: human, 24 h
Measured Cytotoxicity (cytotoxic concentration) by item

MOLECULE | QUALIFIER_SIGN | Cytotoxicity (cytotoxic concentration) [µM]
O=C1O[C@H]([C@@H](O)CO)C(O)=C1O | > | 500
O=C(O)c1cc(O)c(O)c(O)c1 | > | 500
O=c1c(O)c(-c2cc(O)c(O)c(O)c2)oc2cc(O)cc(O)c12 | = | 200
O=C(O)/C=C/c1ccc(O)c(O)c1 | > | 500
COc1cc(/C=C/C(=O)O)ccc1O | > | 500
O=c1cc(-c2ccc(O)c(O)c2)oc2cc(O)cc(O)c12 | = | 20
O=c1c(O)c(-c2ccc(O)c(O)c2)oc2cc(O)cc(O)c12 | > | 20
Oc1cc(O)c2c(c1)O[C@H](c1ccc(O)c(O)c1)[C@H](O)C2 [Epicatechin, (−)-epicatechin] | > | 500
O=c1c(O)c(-c2ccc(O)cc2)oc2cc(O)cc(O)c12 | = | 30
O=C(CCc1ccc(O)cc1)c1c(O)cc(O)cc1O | = | 25
